- targetOfAssay: human SSTR4 (Homo sapiens, UniProt P31391)
- Sequence (P31391 whole entry): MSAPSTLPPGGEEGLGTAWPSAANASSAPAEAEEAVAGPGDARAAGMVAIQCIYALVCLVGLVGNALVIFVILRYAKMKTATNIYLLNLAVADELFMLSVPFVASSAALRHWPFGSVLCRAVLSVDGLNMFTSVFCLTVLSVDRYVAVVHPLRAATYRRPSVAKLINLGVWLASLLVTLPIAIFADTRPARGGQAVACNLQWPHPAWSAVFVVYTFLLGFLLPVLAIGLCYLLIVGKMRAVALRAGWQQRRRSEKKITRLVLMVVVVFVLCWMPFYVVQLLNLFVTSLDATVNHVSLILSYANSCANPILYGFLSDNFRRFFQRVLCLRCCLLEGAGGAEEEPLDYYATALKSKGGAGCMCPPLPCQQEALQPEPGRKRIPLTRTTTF
- Format: cell-based
Positions of bridges follow the written chain, without caps; N, C: chain ends. Non-standard residues stand in square brackets, D forms with d. Residues, ends and D or L forms follow the SMILES beside them. Hyp = O=C(O)[C@@H]1C[C@@H](O)CN1
Threshold-based label: decrease in potency at SSTR4 under 50 fold gives satisfied, decrease in potency at SSTR4 not under 50 fold gives not satisfied.

Record CC(C)C[C@H](NC(=O)[C@@H]1C[C@@H](O)CN1C(=O)[C@@H]1CSSC[C@H](NC(=O)[C@@H](NC(=O)[C@@H]2CCCN2)C(C)C)C(=O)N[C@H](Cc2c[nH]c3ccccc23)C(=O)N[C@@H](CCCCN)C(=O)N[C@@H](C)C(=O)NCC(=O)N1)C(=O)O [Fj1A3] (H-PVC[dW]KAGC[Hyp]L-OH; disulfide 3-8; N-terminus assumed) : is its decrease in potency at SSTR4 strictly below 50 fold?
not satisfied

Next:
Record NCCCC[C@@H]1NC(=O)[C@@H](Cc2c[nH]c3ccccc23)NC(=O)[C@@H](N)CSSC[C@@H](C(=O)O)NC(=O)CNC(=O)[C@H](Cc2ccccc2)NC1=O [Fj1A9, Cys3-D-Trp4-Lys5-Phe6-Gly7-Cys8] (H-C[dW]KFGC-OH; disulfide 1-6; N-terminus assumed) : is its decrease in potency at SSTR4 strictly below 50 fold?
satisfied

Record CC(C)C[C@H](NC(=O)[C@@H]1C[C@@H](O)CN1C(=O)[C@@H]1CSSC[C@H](NC(=O)[C@@H](NC(=O)[C@@H]2CCCN2)C(C)C)C(=O)N[C@H](Cc2c[nH]c3ccccc23)C(=O)N[C@@H](CCCCN)C(=O)N[C@H](Cc2ccccc2)C(=O)NCC(=O)N1)C(=O)O [Fj1A8] (H-PVC[dW]K[dF]GC[Hyp]L-OH; disulfide 3-8; N-terminus assumed) : is its decrease in potency at SSTR4 strictly below 50 fold?
satisfied

Record CC(C)C[C@H](NC(=O)[C@@H]1C[C@@H](O)CN1C(=O)[C@@H]1CSSC[C@H](NC(=O)[C@@H](NC(=O)[C@@H]2CCCN2)C(C)C)C(=O)N[C@@H](C)C(=O)N[C@@H](CCCCN)C(=O)N[C@@H](Cc2ccccc2)C(=O)NCC(=O)N1)C(=O)O [Fj1A1] (H-PVCAKFGC[Hyp]L-OH; disulfide 3-8; N-terminus assumed) : is its decrease in potency at SSTR4 strictly below 50 fold?
not satisfied

Record CC(C)C[C@H](NC(=O)[C@@H]1C[C@@H](O)CN1C(=O)[C@@H]1CSSC[C@H](N)C(=O)N[C@H](Cc2c[nH]c3ccccc23)C(=O)N[C@@H](CCCCN)C(=O)N[C@@H](Cc2ccccc2)C(=O)NCC(=O)N1)C(=O)O [Fj1A10] (H-C[dW]KFGC[Hyp]L-OH; disulfide 1-6; N-terminus assumed) : is its decrease in potency at SSTR4 strictly below 50 fold?
satisfied

----------
- targetOfAssay: human SSTR4 (Homo sapiens)
- Type: cell-based
Positions of bridges follow the written chain, without caps; N, C: chain ends. Non-standard residues stand in square brackets, D forms with d. Residues, ends and D or L forms follow the SMILES beside them. Hyp = O=C(O)[C@@H]1C[C@@H](O)CN1
readoutName: increase in potency at SSTR4 (fold)
A number alone suffices; assume fold.

Form field: reported increase in potency at SSTR4 of CC(C)[C@H](NC(=O)[C@@H]1CCCN1)C(=O)N[C@H]1CSSC[C@@H](C(=O)N[C@@H](Cc2c[nH]c3ccccc23)C(=O)O)NC(=O)CNC(=O)[C@H](Cc2ccccc2)NC(=O)[C@H](CCCCN)NC(=O)[C@@H](Cc2c[nH]c3ccccc23)NC1=O [Fj1A14] (H-PVC[dW]KFGCW-OH; disulfide 3-8; N-terminus assumed)
85

Form field: reported increase in potency at SSTR4 of CC(C)C[C@H](NC(=O)[C@@H]1C[C@@H](O)CN1C(=O)[C@@H]1CSSC[C@H](NC(=O)[C@H](Cc2ccccc2)NC(=O)[C@@H](N)CC(C)C)C(=O)N[C@H](Cc2c[nH]c3ccccc23)C(=O)N[C@@H](CCCCN)C(=O)N[C@@H](Cc2ccccc2)C(=O)NCC(=O)N1)C(=O)O [Fj1A13] (H-LFC[dW]KFGC[Hyp]L-OH; disulfide 3-8; N-terminus assumed)
11

Form field: reported increase in potency at SSTR4 of CC(C)C[C@H](NC(=O)[C@@H]1C[C@@H](O)CN1C(=O)[C@@H]1CSSC[C@H](NC(=O)[C@@H](NC(=O)[C@@H]2CCCN2)C(C)C)C(=O)N[C@H](Cc2c[nH]c3ccccc23)C(=O)N[C@@H](CCCCN)C(=O)N[C@@H](Cc2ccccc2)C(=O)N[C@@H](CO)C(=O)N1)C(=O)O [Fj1A15] (H-PVC[dW]KFSC[Hyp]L-OH; disulfide 3-8; N-terminus assumed)
14

Next:
Form field: reported increase in potency at SSTR4 of CC(C)C[C@H](NC(=O)[C@@H]1C[C@@H](O)CN1C(=O)[C@@H]1CSSC[C@H](NC(=O)[C@@H](NC(=O)[C@@H]2CCCN2)C(C)C)C(=O)N[C@H](Cc2c[nH]c3ccccc23)C(=O)N[C@@H](CCCCN)C(=O)N[C@@H](Cc2ccccc2)C(=O)N[C@@H](C)C(=O)N1)C(=O)O [Fj1A4] (H-PVC[dW]KFAC[Hyp]L-OH; disulfide 3-8; N-terminus assumed)
6.2

Numbers sourced from paper PMC12663243.
